pIC50: −log10 of the molar value.
Please consider the recorded pIC50 for Histone-lysine N-methyltransferase EHMT2 (Homo sapiens) in what follows.
RESULT TYPE: pIC50

[[record]]
compound = "COc1cc2nc(-c3ccc(C)o3)cc(NCC3CCN(C4CC(C(=O)NO)C4)CC3)c2cc1OC (stereo not drawn)"
tgt = "Histone-lysine N-methyltransferase EHMT2 (Homo sapiens)"
recorded_value = "< 5.00"

[[record]]
compound = "COc1cc2c(NCC3CCN(Cc4ccc(C(=O)NO)cc4)CC3)cc(-c3ccc(C)o3)nc2cc1OCCCN1CCCC1"
tgt = "Histone-lysine N-methyltransferase EHMT2 (Homo sapiens)"
recorded_value = 7.34

[[record]]
compound = "COc1cc2nc(-c3ccc(C)o3)cc(NCC3CCN(Cc4ccc(C(=O)NO)cc4)CC3)c2cc1OC"
tgt = "Histone-lysine N-methyltransferase EHMT2 (Homo sapiens)"
recorded_value = "< 5.00"

[[record]]
compound = "COc1cc2c(NC3CCN(c4ncc(C(=O)NO)cn4)CC3)cc(C)nc2cc1OCCCN1CCCC1"
tgt = "Histone-lysine N-methyltransferase EHMT2 (Homo sapiens)"
recorded_value = 7.47

[[record]]
compound = "COc1cc2c(NCC3CCC(C(=O)NO)CC3)cc(-c3ccc(C)o3)nc2cc1OCCCN1CCCC1 (stereo not drawn)"
tgt = "Histone-lysine N-methyltransferase EHMT2 (Homo sapiens)"
recorded_value = 7.26

[[record]]
compound = "COc1cc2nc(C3CCCCC3)cc(NCC3CCN(c4ncc(C(=O)NO)cn4)CC3)c2cc1OC"
tgt = "Histone-lysine N-methyltransferase EHMT2 (Homo sapiens)"
recorded_value = "< 5.00"

[[record]]
compound = "COc1cc2c(NCc3ccc(-c4ccc(C(=O)NO)cc4)cc3)cc(-c3ccc(C)o3)nc2cc1OCCCN1CCCC1"
tgt = "Histone-lysine N-methyltransferase EHMT2 (Homo sapiens)"
recorded_value = 5.65

[[record]]
compound = "COc1cc2c(NCC3CCN(c4ncc(C(=O)NO)cn4)CC3)cc(-c3ccc(C)o3)nc2cc1OCCCN1CCCC1"
tgt = "Histone-lysine N-methyltransferase EHMT2 (Homo sapiens)"
recorded_value = 6.57

[[record]]
compound = "COc1cc2nc(-c3ccc(C)o3)cc(NCC3C4CCC3CN(c3ncc(C(=O)NO)cn3)C4)c2cc1OC (stereo not drawn)"
tgt = "Histone-lysine N-methyltransferase EHMT2 (Homo sapiens)"
recorded_value = "< 5.00"

[[record]]
compound = "COc1cc2nc(-c3ccc(C)o3)cc(NCC3CCN(c4ccc(C(=O)NO)cn4)CC3)c2cc1OC"
tgt = "Histone-lysine N-methyltransferase EHMT2 (Homo sapiens)"
recorded_value = "< 5.00"

[[record]]
compound = "COc1cc2nc(-c3ccc(C)o3)cc(NCC3CCN(Cc4ccc(C(=O)NO)s4)CC3)c2cc1OC"
tgt = "Histone-lysine N-methyltransferase EHMT2 (Homo sapiens)"
recorded_value = "< 5.00"

[[record]]
compound = "COc1cc2nc(-c3ccc(C)s3)cc(NCC3CCN(c4ncc(C(=O)NO)cn4)CC3)c2cc1OC"
tgt = "Histone-lysine N-methyltransferase EHMT2 (Homo sapiens)"
recorded_value = "< 5.00"

[[record]]
compound = "COc1cc2nc(-c3ccc(C)o3)cc(N[C@H]3CC[C@@H](C(=O)NO)CC3)c2cc1OC"
tgt = "Histone-lysine N-methyltransferase EHMT2 (Homo sapiens)"
recorded_value = "< 5.00"


----------
TGT: UniProt P11712
Sequence (P11712 whole entry): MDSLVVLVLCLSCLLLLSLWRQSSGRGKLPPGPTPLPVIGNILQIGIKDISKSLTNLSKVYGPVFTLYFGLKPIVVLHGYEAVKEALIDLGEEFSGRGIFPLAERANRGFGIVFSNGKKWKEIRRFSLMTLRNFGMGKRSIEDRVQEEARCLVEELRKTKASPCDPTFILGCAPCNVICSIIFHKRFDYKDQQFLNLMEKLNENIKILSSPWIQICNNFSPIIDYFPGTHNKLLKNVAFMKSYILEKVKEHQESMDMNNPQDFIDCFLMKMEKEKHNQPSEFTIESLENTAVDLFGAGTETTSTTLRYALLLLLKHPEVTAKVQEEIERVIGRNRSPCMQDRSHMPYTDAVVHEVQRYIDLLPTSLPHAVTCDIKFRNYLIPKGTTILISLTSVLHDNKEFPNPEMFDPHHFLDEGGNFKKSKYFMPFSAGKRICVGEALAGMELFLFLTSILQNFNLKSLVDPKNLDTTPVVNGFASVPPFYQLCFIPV
PROTOCOL: Inhibition of CYP2C9 in human liver microsomes at 10 uM incubated for 10 mins in presence of NADPH by LC-MS/MS analysis relative to control
Type: ADME
RESULT TYPE: inhibition at 10 min, 10 µM

[[record]]
smiles = "COc1cc2nc(-c3ccc(C)o3)cc(NCC3CCN(c4ncc(C(=O)NO)cn4)CC3)c2cc1OC"
tgt = "UniProt P11712"
result_type = "inhibition at 10 min, 10 µM"
recorded_value = "0%"


----------
PROTOCOL: Apparent oral clearance in BALB/c RAG2-/- gammaC-/- mouse at 10 mg/kg, ip using 80% saline 10% Tween20 and 10% DMSO formulation measured up to 24 hrs by UPLC-triple quadrupole MS analysis
Assay type: ADME, organism-based
MEASUREMENT CONDITIONS: in vivo
RESULT TYPE: CL/F (mL/min)

[[record]]
smiles = "COc1cc2nc(-c3ccc(C)o3)cc(NCC3CCN(c4ncc(C(=O)NO)cn4)CC3)c2cc1OC"
recorded_value = 8.83


----------
System: THLE-2
PROTOCOL: Cytotoxicity against human THLE-2 cells assessed as decrease in cell viability measured after 72 hrs by Vialight-plus cell proliferation assay
Format: cell-based
MEASUREMENT CONDITIONS: thle-2, 72 h
Below is a list of entries, each paired with its recorded LC50 value.
RESULT TYPE: LC50 (µM)

[[record]]
molecule = "Cc1[nH]c2ccccc2c1CCNCc1ccc(/C=C/C(=O)NO)cc1"
tgt = "THLE-2"
result_type = "LC50"
operator_symbol = "="
recorded_value = 0.022

[[record]]
molecule = "COc1cc2c(NC3CCN(c4ncc(C(=O)NO)cn4)CC3)cc(C)nc2cc1OCCCN1CCCC1"
tgt = "THLE-2"
result_type = "LC50"
operator_symbol = "="
recorded_value = 33.25

[[record]]
molecule = "COc1cc2c(NCC3CCN(c4ncc(C(=O)NO)cn4)CC3)cc(C)nc2cc1OCCCN1CCCC1"
tgt = "THLE-2"
result_type = "LC50"
operator_symbol = ">"
recorded_value = 100

[[record]]
molecule = "COc1cc2c(NCC3CCN(c4ncc(C(=O)NO)cn4)CC3)cc(-c3ccc(C)o3)nc2cc1OCCCN1CCCC1"
tgt = "THLE-2"
result_type = "LC50"
operator_symbol = "="
recorded_value = 10.9

[[record]]
molecule = "COc1cc2nc(-c3ccc(C)o3)cc(NCC3CCN(Cc4ccc(C(=O)NO)cc4)CC3)c2cc1OC"
tgt = "THLE-2"
result_type = "LC50"
operator_symbol = "="
recorded_value = 0.204

[[record]]
molecule = "COc1cc2c(NC3CCN(Cc4ccc(C(=O)NO)cc4)CC3)cc(-c3ccc(C)o3)nc2cc1OCCCN1CCCC1"
tgt = "THLE-2"
result_type = "LC50"
operator_symbol = "="
recorded_value = 22.05

[[record]]
molecule = "COc1cc2nc(-c3ccc(C)o3)cc(NCC3CCN(c4ncc(C(=O)NO)cn4)CC3)c2cc1OC"
tgt = "THLE-2"
result_type = "LC50"
operator_symbol = "="
recorded_value = 0.794

[[record]]
molecule = "COc1cc2nc(-c3ccc(C)o3)cc(NCC3CCN(C4CC(C(=O)NO)C4)CC3)c2cc1OC (stereo unspecified)"
tgt = "THLE-2"
result_type = "LC50"
operator_symbol = "="
recorded_value = 10.41

[[record]]
molecule = "COc1cc2c(NCC3CCN(C)CC3)cc(-c3ccc(C)o3)nc2cc1OCCCN1CCCC1"
tgt = "THLE-2"
result_type = "LC50"
operator_symbol = "="
recorded_value = 1.3

[[record]]
molecule = "COc1cc2c(NC3CCN(C)CC3)cc(-c3ccc(C)o3)nc2cc1OCCCN1CCCC1"
tgt = "THLE-2"
result_type = "LC50"
operator_symbol = "="
recorded_value = 1.78

[[record]]
molecule = "COc1cc2nc(-c3ccc(C)o3)cc(NCC3CCC(C(=O)NO)CC3)c2cc1OC (stereo unspecified)"
tgt = "THLE-2"
result_type = "LC50"
operator_symbol = "="
recorded_value = 9.6


----------
System: MM1.S
PROTOCOL: Antiproliferative activity against human MM1.S cells assessed as inhibition of cell proliferation measured up to 72 hrs by CellTiter96 Aqueous one reagent based assay
Type: functional
MEASUREMENT CONDITIONS: time hrs <=72, read-out: GI50
The threshold is 500 nM. Values of GI50 beneath it are tagged condition met; values meeting or exceeding it are tagged condition not met.

[[record]]
compound = "COc1cc2nc(-c3ccc(C)o3)cc(NCC3CCN(C4CC(C(=O)NO)C4)CC3)c2cc1OC (stereo not drawn)"
tgt = "MM1.S"
class_label = "condition not met"

[[record]]
compound = "COc1cc2c(NCC3CCN(c4ncc(C(=O)NO)cn4)CC3)cc(C)nc2cc1OCCCN1CCCC1"
tgt = "MM1.S"
class_label = "condition not met"

[[record]]
compound = "COc1cc2nc(-c3ccc(C)o3)cc(NCC3CCN(Cc4ccc(C(=O)NO)cc4)CC3)c2cc1OC"
tgt = "MM1.S"
class_label = "condition met"

[[record]]
compound = "COc1cc2c(NCC3CCC(C(=O)NO)CC3)cc(-c3ccc(C)o3)nc2cc1OCCCN1CCCC1 (stereo not drawn)"
tgt = "MM1.S"
class_label = "condition not met"

[[record]]
compound = "COc1cc2c(NCC3CCN(C)CC3)cc(-c3ccc(C)o3)nc2cc1OCCCN1CCCC1"
tgt = "MM1.S"
class_label = "condition not met"

[[record]]
compound = "COc1cc2nc(-c3ccc(C)o3)cc(NC3CCN(c4ncc(C(=O)NO)cn4)CC3)c2cc1OC"
tgt = "MM1.S"
class_label = "condition not met"

[[record]]
compound = "COc1cc2nc(C3CCCCC3)cc(NCC3CCN(c4ncc(C(=O)NO)cn4)CC3)c2cc1OC"
tgt = "MM1.S"
class_label = "condition met"

[[record]]
compound = "COc1cc2c(NC3CCN(C)CC3)cc(-c3ccc(C)o3)nc2cc1OCCCN1CCCC1"
tgt = "MM1.S"
class_label = "condition not met"

[[record]]
compound = "Cc1[nH]c2ccccc2c1CCNCc1ccc(/C=C/C(=O)NO)cc1"
tgt = "MM1.S"
class_label = "condition met"

[[record]]
compound = "COc1cc2c(NCC3CCN(Cc4ccc(C(=O)NO)cc4)CC3)cc(-c3ccc(C)o3)nc2cc1OCCCN1CCCC1"
tgt = "MM1.S"
class_label = "condition not met"

[[record]]
compound = "COc1cc2nc(-c3ccc(C)o3)cc(NCc3ccc(C(=O)NO)cc3)c2cc1OC"
tgt = "MM1.S"
class_label = "condition not met"

[[record]]
compound = "COc1cc2c(NCC3CCN(c4ccc(C(=O)NO)cc4)CC3)cc(-c3ccc(C)o3)nc2cc1OCCCN1CCCC1"
tgt = "MM1.S"
class_label = "condition not met"

[[record]]
compound = "COc1cc2nc(-c3ccc(C)o3)cc(NCC3CCN(c4ncc(C(=O)NO)cn4)CC3)c2cc1OC"
tgt = "MM1.S"
class_label = "condition met"

[[record]]
compound = "COc1cc2c(NC3CCN(Cc4ccc(C(=O)NO)cc4)CC3)cc(-c3ccc(C)o3)nc2cc1OCCCN1CCCC1"
tgt = "MM1.S"
class_label = "condition not met"

[[record]]
compound = "COc1cc2nc(-c3ccc(C)o3)cc(NCC3C4CCC3CN(c3ncc(C(=O)NO)cn3)C4)c2cc1OC (stereo not drawn)"
tgt = "MM1.S"
class_label = "condition met"

[[record]]
compound = "COc1cc2c(NC3CCN(c4ccc(C(=O)NO)cc4)CC3)cc(-c3ccc(C)o3)nc2cc1OCCCN1CCCC1"
tgt = "MM1.S"
class_label = "condition not met"

[[record]]
compound = "COc1cc2c(NC3CCN(c4ncc(C(=O)NO)cn4)CC3)cc(C)nc2cc1OCCCN1CCCC1"
tgt = "MM1.S"
class_label = "condition not met"

[[record]]
compound = "COc1cc2c(NCC3CCN(c4ncc(C(=O)NO)cn4)CC3)cc(-c3ccc(C)o3)nc2cc1OCCCN1CCCC1"
tgt = "MM1.S"
class_label = "condition not met"

[[record]]
compound = "COc1cc2c(NCC3CCN(c4ncc(C(=O)NO)cn4)CC3)cc(-c3ccc(C)o3)nc2cc1OCC1CCNCC1"
tgt = "MM1.S"
class_label = "condition not met"

[[record]]
compound = "COc1cc2c(NCc3ccc(-c4ccc(C(=O)NO)cc4)cc3)cc(-c3ccc(C)o3)nc2cc1OCCCN1CCCC1"
tgt = "MM1.S"
class_label = "condition not met"

[[record]]
compound = "COc1cc2nc(-c3ccc(C)o3)cc(NCC3CCN(Cc4ccc(C(=O)NO)s4)CC3)c2cc1OC"
tgt = "MM1.S"
class_label = "condition not met"

[[record]]
compound = "COc1cc2nc(-c3ccc(C)o3)cc(NCC3CCC(C(=O)NO)CC3)c2cc1OC (stereo not drawn)"
tgt = "MM1.S"
class_label = "condition not met"

[[record]]
compound = "COc1cc2c(NCc3ccc(C(=O)NO)cc3)cc(-c3ccc(C)o3)nc2cc1OCCCN1CCCC1"
tgt = "MM1.S"
class_label = "condition not met"


// data source = ChEMBL document CHEMBL4834403
